- targetUnderTest: human PAH with the R408W mutation (Homo sapiens, UniProt P00439, R408W)
- Construct: expressed in transfected cells
- Sequence (P00439 1-452 R408W): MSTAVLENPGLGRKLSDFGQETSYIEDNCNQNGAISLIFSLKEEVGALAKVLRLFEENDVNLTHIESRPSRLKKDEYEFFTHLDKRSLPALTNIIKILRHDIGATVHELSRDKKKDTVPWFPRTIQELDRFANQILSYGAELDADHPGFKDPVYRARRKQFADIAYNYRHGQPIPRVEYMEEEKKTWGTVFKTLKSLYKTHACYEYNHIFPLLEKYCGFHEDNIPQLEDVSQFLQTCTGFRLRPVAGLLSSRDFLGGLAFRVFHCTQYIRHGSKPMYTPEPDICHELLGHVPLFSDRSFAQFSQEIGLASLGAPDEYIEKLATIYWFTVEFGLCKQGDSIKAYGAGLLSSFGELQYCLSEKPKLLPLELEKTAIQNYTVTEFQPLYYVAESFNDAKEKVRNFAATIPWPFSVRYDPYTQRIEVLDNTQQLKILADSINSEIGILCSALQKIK
- procedureSummary: Cell Based Phenylalanine Flux Assay
- conditionDetails: A375 cells expressing human PAH R408W; 24 hrs compound incubation; 13C-Tyrosine by LC-MS; average where tested multiple times; read-out: AC50
valueKind: AC50

{"molecule": "CC(O)c1nc(Cl)c(C(=O)N2CCc3[nH]cnc3[C@H]2c2cc3ccccn3n2)o1 (single isomer, unassigned) [Example 2377]", "resultValue": "1000 to 5000 nM"}
{"molecule": "Cn1cc(-c2ccc3c(C(=O)N4CCc5[nH]cnc5[C@H]4c4cc5cccc(C(F)(F)F)n5n4)cnn3c2)cn1 [Example 2438]", "resultValue": "1000 to 5000 nM"}
{"molecule": "FC(F)(F)c1nnc(N2CCc3[nH]cnc3[C@H]2c2cc3c(Cl)cccn3n2)o1 [Example 1849]", "resultValue": "< 500 nM"}
{"molecule": "O=C(c1cnc(-c2cnccn2)o1)N1CCc2[nH]cnc2[C@H]1c1cc2c(F)cccn2n1 [Example 2516]", "resultValue": "1000 to 5000 nM"}
{"molecule": "COc1cccn2nc([C@H]3c4nc[nH]c4CCN3c3nnc(C(F)(F)F)o3)cc12 [Example 2165]", "resultValue": "> 5000 nM"}
{"molecule": "O=C(c1oc(-c2ccccn2)nc1C1CC1)N1CCc2[nH]cnc2[C@@H]1c1cc2c(C(F)(F)F)cccn2n1 [Example 2125]", "resultValue": "1000 to 5000 nM"}
{"molecule": "CCc1cccn2nc([C@@H]3c4nc[nH]c4CCN3C(=O)c3nnc(C4CC4)o3)cc12 [Example 1875]", "resultValue": "< 500 nM"}

====

- targetUnderTest: human PAH with the R408W mutation (Homo sapiens, UniProt P00439, R408W)
- Construct: expressed in transfected cells
- procedureSummary: Cell Based Phenylalanine Flux Assay
- conditionDetails: A375 cells expressing human R408W PAH; 24 hrs compound incubation; 13C-Tyrosine by LC-MS; average where tested multiple times; read-out: AC50

{"lineNotation": "COc1ccc(-c2nnc(C(=O)N3CCc4[nH]cnc4[C@H]3c3cc4c(C(F)(F)F)cccn4n3)o2)nc1", "targetUnderTest": "human PAH with the R408W mutation (Homo sapiens, UniProt P00439, R408W)", "AC50": "< 500 nM"}
{"lineNotation": "COc1ccc(-c2nnc(C(=O)N3CCc4[nH]cnc4[C@@H]3c3cc4c(C(F)F)cccn4n3)o2)nc1", "targetUnderTest": "human PAH with the R408W mutation (Homo sapiens, UniProt P00439, R408W)", "AC50": "1000 to 5000 nM"}
{"lineNotation": "Cc1ncccc1-c1nnc(C(=O)N2CCc3[nH]cnc3[C@H]2c2cc3cccc(C(F)(F)F)n3n2)o1", "targetUnderTest": "human PAH with the R408W mutation (Homo sapiens, UniProt P00439, R408W)", "AC50": "500 to 1000 nM"}
{"lineNotation": "C[C@H](O)c1nc(C(F)F)c(C(=O)N2CCc3[nH]cnc3[C@H]2c2cc3ccccn3n2)o1", "targetUnderTest": "human PAH with the R408W mutation (Homo sapiens, UniProt P00439, R408W)", "AC50": "< 500 nM"}
{"lineNotation": "Cc1cccn2nc([C@H]3c4nc[nH]c4CCN3C(=O)c3nnc(-c4cc(C)n(C)n4)o3)cc12", "targetUnderTest": "human PAH with the R408W mutation (Homo sapiens, UniProt P00439, R408W)", "AC50": "> 5000 nM"}
{"lineNotation": "O=C(c1ocnc1C(F)F)N1CCc2[nH]cnc2[C@H]1c1cc2ccccn2n1", "targetUnderTest": "human PAH with the R408W mutation (Homo sapiens, UniProt P00439, R408W)", "AC50": "< 500 nM"}
{"lineNotation": "Cc1cccn2nc([C@@H]3c4nc[nH]c4CCN3C(=O)c3nc(C4CC4)nn3C)cc12", "targetUnderTest": "human PAH with the R408W mutation (Homo sapiens, UniProt P00439, R408W)", "AC50": "500 to 1000 nM"}
{"lineNotation": "Cc1nc([C@H](C)O)oc1C(=O)N1CCc2[nH]cnc2[C@H]1c1cc2c(Cl)cccn2n1", "targetUnderTest": "human PAH with the R408W mutation (Homo sapiens, UniProt P00439, R408W)", "AC50": "< 500 nM"}
{"lineNotation": "COc1cccn2nc([C@@H]3c4nc[nH]c4CCN3C(=O)c3nnc(-c4cnn(C)c4C)o3)cc12", "targetUnderTest": "human PAH with the R408W mutation (Homo sapiens, UniProt P00439, R408W)", "AC50": "500 to 1000 nM"}
{"lineNotation": "Cc1cccc(-c2nnc(C(=O)N3CCc4[nH]cnc4[C@H]3c3cc4cccc(Cl)n4n3)o2)n1", "targetUnderTest": "human PAH with the R408W mutation (Homo sapiens, UniProt P00439, R408W)", "AC50": "< 500 nM"}
{"lineNotation": "O=C(c1nnc(C2CC2)o1)N1CCc2[nH]cnc2[C@H]1c1cc2c(OC(F)F)cccn2n1", "targetUnderTest": "human PAH with the R408W mutation (Homo sapiens, UniProt P00439, R408W)", "AC50": "500 to 1000 nM"}
{"lineNotation": "O=C(c1cnn2ccccc12)N1CCc2[nH]cnc2[C@@H]1c1cc2c(C(F)F)cccn2n1", "targetUnderTest": "human PAH with the R408W mutation (Homo sapiens, UniProt P00439, R408W)", "AC50": "> 5000 nM"}
{"lineNotation": "Cn1ccc(-c2nnc(C(=O)N3CCc4[nH]cnc4[C@@H]3c3cc4ccccn4n3)o2)n1", "targetUnderTest": "human PAH with the R408W mutation (Homo sapiens, UniProt P00439, R408W)", "AC50": "1000 to 5000 nM"}
{"lineNotation": "O=C(c1nnc(-c2cccnc2)o1)N1CCc2[nH]cnc2[C@H]1c1cc2cccc(F)n2n1", "targetUnderTest": "human PAH with the R408W mutation (Homo sapiens, UniProt P00439, R408W)", "AC50": "< 500 nM"}
{"lineNotation": "CC(C)(O)c1nc(C(F)(F)F)c(C(=O)N2CCc3[nH]cnc3[C@H]2c2cc3ccccn3n2)o1", "targetUnderTest": "human PAH with the R408W mutation (Homo sapiens, UniProt P00439, R408W)", "AC50": "< 500 nM"}

====

- targetUnderTest: human PAH with the R408W mutation (Homo sapiens, UniProt P00439, R408W)
- Construct: expressed in transfected cells
- procedureSummary: Cell Based Phenylalanine Flux Assay;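 note: after compound treatment, cells received sepiapterin plus isotope-labelled Phenylalanine for 4 hours, then labelled Tyrosine in the medium was quantified, 10-point 2-fold dilution series run in duplicate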
- conditionDetails: A375 cells expressing human PAH R408W; 24 hrs compound incubation; 13C-Tyrosine by LC-MS; average where tested multiple times; read-out: AC50
valueKind: AC50

{"lineNotation": "CCc1cccn2nc([C@H]3c4nc[nH]c4CCN3C(=O)c3nnc(-c4ccn(C)n4)o3)cc12", "valueKind": "AC50", "resultValue": "> 5000 nM"}
{"lineNotation": "FC(F)(F)c1cnc(N2CCc3[nH]cnc3[C@H]2c2cc3cccc(Cl)n3n2)nc1", "valueKind": "AC50", "resultValue": "< 500 nM"}
{"lineNotation": "COc1cccn2nc([C@H]3c4nc[nH]c4CCN3c3ncc(C(F)(F)F)cn3)cc12", "valueKind": "AC50", "resultValue": "> 5000 nM"}
{"lineNotation": "FC(F)c1cccn2nc([C@H]3c4nc[nH]c4CCN3c3cnccn3)cc12", "valueKind": "AC50", "resultValue": "> 5000 nM"}
{"lineNotation": "Cn1nc(C(F)(F)F)nc1C(=O)N1CCc2[nH]cnc2[C@H]1c1cc2cccc(Cl)n2n1", "valueKind": "AC50", "resultValue": "1000 to 5000 nM"}
{"lineNotation": "Fc1ccc(-c2nnc(N3CCc4[nH]cnc4[C@@H]3c3cc4cccc(C(F)F)n4n3)o2)cc1", "valueKind": "AC50", "resultValue": "> 5000 nM"}
{"lineNotation": "O=C(c1oc(-c2ccccn2)nc1C1CC1)N1CCc2[nH]cnc2[C@@H]1c1cc2c(C(F)F)cccn2n1", "valueKind": "AC50", "resultValue": "1000 to 5000 nM"}
{"lineNotation": "CC(C)c1nnc(N2CCc3[nH]cnc3[C@H]2c2cc3c(C(F)(F)F)cccn3n2)o1", "valueKind": "AC50", "resultValue": "500 to 1000 nM"}
{"lineNotation": "FC(F)(F)c1ccc(N2CCc3[nH]cnc3[C@H]2c2cc3c(Cl)cccn3n2)nc1", "valueKind": "AC50", "resultValue": "< 500 nM"}
{"lineNotation": "FC(F)Oc1cccn2nc([C@@H]3c4nc[nH]c4CCN3c3nnc(C4CC4)o3)cc12", "valueKind": "AC50", "resultValue": "1000 to 5000 nM"}
{"lineNotation": "Nc1cnc(N2CCc3[nH]cnc3[C@H]2c2cc3c(F)cccn3n2)nc1", "valueKind": "AC50", "resultValue": "500 to 1000 nM"}
{"lineNotation": "O=C(c1nnc(-c2ccccn2)o1)N1CCc2[nH]cnc2[C@@H]1c1cc2ccc(C(F)(F)F)cn2n1", "valueKind": "AC50", "resultValue": "1000 to 5000 nM"}
{"lineNotation": "Cc1cccn2nc([C@@H]3c4nc[nH]c4CCN3C(=O)C3CC3)cc12", "valueKind": "AC50", "resultValue": "< 500 nM"}
{"lineNotation": "FC(F)(F)c1cccn2nc([C@@H]3c4nc[nH]c4CCN3c3cnccn3)cc12", "valueKind": "AC50", "resultValue": "< 500 nM"}
{"lineNotation": "Cc1cccn2nc([C@@H]3c4nc[nH]c4CCN3C(=O)c3oc(-c4ccccn4)nc3C3CC3)cc12", "valueKind": "AC50", "resultValue": "< 500 nM"}
{"lineNotation": "FC(F)(F)c1ccc(N2CCc3[nH]cnc3[C@@H]2c2cc3cccc(Cl)n3n2)nc1", "valueKind": "AC50", "resultValue": "> 5000 nM"}
{"lineNotation": "Cn1cc(-c2nnc(C(=O)N3CCc4[nH]cnc4[C@H]3c3cc4c(OC(F)F)cccn4n3)o2)cn1", "valueKind": "AC50", "resultValue": "1000 to 5000 nM"}
{"lineNotation": "Cc1c(-c2ncc(C(=O)N3CCc4[nH]cnc4[C@H]3c3cc4c(C(F)F)cccn4n3)o2)cnn1C", "valueKind": "AC50", "resultValue": "500 to 1000 nM"}
{"lineNotation": "CC(C)(C)c1nnc(N2CCc3[nH]cnc3[C@H]2c2cc3c(Cl)cccn3n2)o1", "valueKind": "AC50", "resultValue": "500 to 1000 nM"}
{"lineNotation": "CC(C)(F)c1ncc(C(=O)N2CCc3[nH]cnc3[C@H]2c2cc3c(C(F)F)cccn3n2)o1", "valueKind": "AC50", "resultValue": "< 500 nM"}
{"lineNotation": "Cc1cccc2cc([C@@H]3c4nc[nH]c4CCN3c3nnc(-c4c(F)cccc4F)o3)nn12", "valueKind": "AC50", "resultValue": "< 500 nM"}
{"lineNotation": "Fc1cccc(N2CCc3[nH]cnc3[C@H]2c2cc3ccccn3n2)n1", "valueKind": "AC50", "resultValue": "< 500 nM"}
{"lineNotation": "Cc1cccc2cc([C@H]3c4nc[nH]c4CCN3c3ccc(C(F)(F)F)cn3)nn12", "valueKind": "AC50", "resultValue": "> 5000 nM"}
{"lineNotation": "Clc1cccc2cc([C@@H]3c4nc[nH]c4CCN3c3ncccn3)nn12", "valueKind": "AC50", "resultValue": "1000 to 5000 nM"}
{"lineNotation": "O=C(c1ocnc1C1CC1)N1CCc2[nH]cnc2[C@@H]1c1cc2cccc(C(F)F)n2n1", "valueKind": "AC50", "resultValue": "> 5000 nM"}
{"lineNotation": "Cc1cc(-c2nnc(C(=O)N3CCc4[nH]cnc4[C@H]3c3cc4c(C)cccn4n3)o2)n[nH]1", "valueKind": "AC50", "resultValue": "1000 to 5000 nM"}
{"lineNotation": "Cc1cccn2nc([C@@H]3c4nc[nH]c4CCN3C(=O)c3cnc(-c4cnn(C)c4)o3)cc12", "valueKind": "AC50", "resultValue": "500 to 1000 nM"}
{"lineNotation": "CC(C)(C)c1nnc(C(=O)N2CCc3[nH]cnc3[C@H]2c2cc3c(C4CC4)cccn3n2)o1", "valueKind": "AC50", "resultValue": "< 500 nM"}
{"lineNotation": "Clc1cccn2nc([C@H]3c4nc[nH]c4CCN3c3nnc(-c4ccncn4)o3)cc12", "valueKind": "AC50", "resultValue": "> 5000 nM"}
{"lineNotation": "Cc1nnc(N2CCc3[nH]cnc3[C@H]2c2cc3c(OC(F)(F)F)cccn3n2)o1", "valueKind": "AC50", "resultValue": "< 500 nM"}
{"lineNotation": "FC(F)c1cccc2cc([C@@H]3c4nc[nH]c4CCN3c3ncc(C(F)(F)F)cn3)nn12", "valueKind": "AC50", "resultValue": "500 to 1000 nM"}

src = patent US20230365592A1
